# assayTarget: Neuropeptide Y receptor type 5 (Rattus norvegicus, UniProt Q63634)
# Sequence (Q63634 whole entry): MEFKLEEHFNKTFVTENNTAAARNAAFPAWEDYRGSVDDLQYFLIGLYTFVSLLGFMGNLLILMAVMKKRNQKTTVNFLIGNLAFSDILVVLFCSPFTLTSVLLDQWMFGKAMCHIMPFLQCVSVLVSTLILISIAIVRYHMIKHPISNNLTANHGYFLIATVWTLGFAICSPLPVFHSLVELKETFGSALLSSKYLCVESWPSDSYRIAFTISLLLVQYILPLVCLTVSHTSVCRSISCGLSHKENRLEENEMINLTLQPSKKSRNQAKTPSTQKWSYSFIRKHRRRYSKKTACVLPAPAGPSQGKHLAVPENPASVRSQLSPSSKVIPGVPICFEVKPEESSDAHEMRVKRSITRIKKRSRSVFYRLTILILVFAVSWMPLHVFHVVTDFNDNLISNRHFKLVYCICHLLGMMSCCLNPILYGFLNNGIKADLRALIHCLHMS
# protocol: Functional response of NPY to inhibit forskolin-stimulated cAMP in cells stably transfected with rat Neuropeptide Y receptor type 5
reportedProperty: Ki (µM)
Report the figure in µM without appending any unit label.

Recorded Ki of O=[N+]([O-])c1ccccc1S(=O)(=O)NC[C@H]1CC[C@H](CNCC2CCc3ccccc3C2)CC1 (stereo partly specified) , please.
0.018

----------
Each item that follows carries a reported pKi.
# assayTarget: Neuropeptide Y receptor type 5 (Homo sapiens, UniProt Q15761)
# Sequence (Q15761 whole entry): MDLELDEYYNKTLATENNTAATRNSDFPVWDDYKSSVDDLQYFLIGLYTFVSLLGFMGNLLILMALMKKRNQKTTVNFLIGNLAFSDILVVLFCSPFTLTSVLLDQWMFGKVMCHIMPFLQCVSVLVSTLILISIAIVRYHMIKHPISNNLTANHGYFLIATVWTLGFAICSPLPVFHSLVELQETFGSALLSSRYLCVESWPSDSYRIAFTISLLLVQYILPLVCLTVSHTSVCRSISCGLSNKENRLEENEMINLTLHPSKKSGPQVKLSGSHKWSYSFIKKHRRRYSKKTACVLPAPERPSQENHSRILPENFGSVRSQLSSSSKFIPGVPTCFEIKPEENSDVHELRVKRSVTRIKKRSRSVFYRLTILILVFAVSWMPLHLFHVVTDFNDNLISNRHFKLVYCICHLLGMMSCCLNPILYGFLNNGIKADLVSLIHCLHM
Units for pKi: none; it is -log10 of a concentration expressed in mol/L.

Some entries whose results are on file:
* O=S(=O)(NC[C@H]1CC[C@H](CNCc2ccc3ccccc3c2)CC1)c1ccccc1C(F)(F)F | 8.00
* O=[N+]([O-])c1ccccc1S(=O)(=O)NC[C@H]1CC[C@H](CNCc2ccnc3ccccc23)CC1 | 7.55

Give recorded pKi with Neuropeptide Y receptor type 5 (Homo sapiens, UniProt Q15761) for the following molecule: O=S(=O)(NC[C@H]1CC[C@H](CNCC2CCc3ccccc3C2)CC1)c1cccc2ccccc12 (stereo not given in full)
7.96

Item O=S(=O)(NC[C@H]1CC[C@H](CNCc2cccc3ccccc23)CC1)c1ccccc1C(F)(F)F with Neuropeptide Y receptor type 5 (Homo sapiens, UniProt Q15761) - pKi?
7.59

pKi of O=S(=O)(NCCCCCCNCc1ccc2ccccc2c1)c1ccc2ccccc2c1 on Neuropeptide Y receptor type 5 (Homo sapiens, UniProt Q15761)?
6.91

----------
# assayTarget: D(2) dopamine receptor (Homo sapiens)
# Sequence (P14416 whole entry): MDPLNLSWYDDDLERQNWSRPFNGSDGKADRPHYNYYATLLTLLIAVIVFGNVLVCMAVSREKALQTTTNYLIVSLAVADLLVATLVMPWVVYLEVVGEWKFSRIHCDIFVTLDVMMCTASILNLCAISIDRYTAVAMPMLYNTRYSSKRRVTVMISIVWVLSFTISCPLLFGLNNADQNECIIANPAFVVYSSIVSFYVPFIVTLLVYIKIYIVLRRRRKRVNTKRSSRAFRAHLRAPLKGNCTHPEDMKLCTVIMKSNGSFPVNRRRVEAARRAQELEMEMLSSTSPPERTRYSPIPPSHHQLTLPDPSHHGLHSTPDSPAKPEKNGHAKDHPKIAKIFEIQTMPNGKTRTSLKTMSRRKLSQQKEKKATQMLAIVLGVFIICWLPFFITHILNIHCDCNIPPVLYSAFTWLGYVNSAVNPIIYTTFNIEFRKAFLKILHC
# protocol: Binding affinity against cloned human Dopamine receptor D2 was evaluated
reportedProperty: Ki (µM)
Return type: number; implicit unit µM.

Item under review: O=[N+]([O-])c1ccccc1S(=O)(=O)NC[C@H]1CC[C@H](CNCC2CCc3ccccc3C2)CC1 (stereo partly specified) . Reported Ki?
0.063

----------
pKi tested on Neuropeptide Y receptor type 1 (Homo sapiens): recorded values
Sequence (P25929 whole entry): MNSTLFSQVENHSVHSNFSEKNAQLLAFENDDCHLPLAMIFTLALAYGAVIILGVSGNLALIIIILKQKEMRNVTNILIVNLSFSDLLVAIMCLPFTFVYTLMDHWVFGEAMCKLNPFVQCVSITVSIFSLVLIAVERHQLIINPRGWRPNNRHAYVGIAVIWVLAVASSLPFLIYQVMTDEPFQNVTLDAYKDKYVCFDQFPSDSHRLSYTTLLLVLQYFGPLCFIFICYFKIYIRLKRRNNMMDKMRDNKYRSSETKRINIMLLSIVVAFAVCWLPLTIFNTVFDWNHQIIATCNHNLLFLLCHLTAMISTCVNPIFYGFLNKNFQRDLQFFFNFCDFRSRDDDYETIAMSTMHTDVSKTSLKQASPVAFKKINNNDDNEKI
// pKi is dimensionless: -log10 of concentration (M)

• O=S(=O)(NCCCCCCNCc1ccc2ccccc2c1)c1ccc2ccccc2c1 = 5.14
• O=[N+]([O-])c1ccccc1S(=O)(=O)NC[C@H]1CC[C@H](CNCc2ccc3ccccc3n2)CC1 = 4.62
• O=[N+]([O-])c1ccccc1S(=O)(=O)NC[C@H]1CC[C@H](CNCC2CCc3ccccc3C2)CC1 (some centres undefined) = 4.80

Now, please, on to the next compound.
Please provide the recorded pKi for O=S(=O)(NC[C@H]1CC[C@H](CNCc2cccc3ccccc23)CC1)c1ccccc1C(F)(F)F , tested on Neuropeptide Y receptor type 1 (Homo sapiens).
4.84
